test system: NIH3T3; experiment: Cytotoxicity against mouse 3T3 cells assessed as reduction in cell viability incubated for 16 hrs by MTT assay; assay type: cell-based; details: Mus musculus, NIH3T3, 16 h

[
  {
    "structure": "CCCC[Te](Cl)(Cl)c1ccccc1[C@H](C)OC",
    "IC50": "3.1 mM"
  },
  {
    "structure": "CCCC[Te](Cl)(Cl)c1ccccc1[C@@H](C)OC",
    "IC50": "11.5 mM"
  }
]

Measured values drawn from ChEMBL document CHEMBL4340535 for this set.
